Source: the supplement of paper PMC12645437

# Tested on: T1, CRBN, Q96SW2;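 note: pooled lentiviral library of zinc finger degron-EGFP fusions in mCherry-positive Jurkat cells, FACS-sorted after compound exposure, with degron abundance counted by next-generation sequencing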
# T1 chain: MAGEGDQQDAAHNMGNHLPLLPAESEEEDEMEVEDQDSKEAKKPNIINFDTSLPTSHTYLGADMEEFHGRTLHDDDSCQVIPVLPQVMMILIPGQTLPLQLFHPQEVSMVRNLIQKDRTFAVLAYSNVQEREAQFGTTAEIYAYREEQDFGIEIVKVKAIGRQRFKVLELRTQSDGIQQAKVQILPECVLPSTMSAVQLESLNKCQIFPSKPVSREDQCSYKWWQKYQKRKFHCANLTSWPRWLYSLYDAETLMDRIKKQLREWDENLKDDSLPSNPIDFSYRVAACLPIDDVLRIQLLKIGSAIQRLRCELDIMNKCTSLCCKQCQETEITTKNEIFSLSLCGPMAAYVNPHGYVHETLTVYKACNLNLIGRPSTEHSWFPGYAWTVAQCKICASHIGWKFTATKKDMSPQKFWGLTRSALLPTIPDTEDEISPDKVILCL
# Experiment summary: log2 fold change of degron read counts, EGFP-low vs EGFP+ sorted cells (limma voom), compound-induced degradation; higher = more compound-induced degradation of the degron-EGFP fusion; degrons are variants of IKZF1/3 zinc finger 2; compound dose not given here
# Condition context: Jurkat; 18 h; compound: compound 33 (diphenyl IMiD analogue)
The full ranking holds about 8,300 sequences; the median of “log2 fold change of degron read counts, EGFP-low vs EGFP+ sorted cells (limma voom), compound-induced degradation” is about -1.1, and the highest 2% start at about 3.2. Only a selection was taken, and the highest values are over-represented in it overall.
The recorded log2 fold change of degron read counts of each item maps onto one of these classes: low = under -0.1, middle = from -0.1 up to 2, high = 2 and over

Use these answered entries as a reference point.
# Biopolymer sequence, Class label
rows = [
    ("FRCPICGADFTQKGNLLRHIKL [46F_47R_49P_50I_52G_53A_54D_55F_67L_, Q9UKT9]", "middle"),
    ("FFCPICGAPFTQKGNLLRHIKL [46F_47F_49P_50I_52G_53A_54P_55F_67L_, Q9UKT9]", "high"),
    ("LECPICGFYCTQKGNLLRHIKL [46L_47E_49P_50I_52G_53F_54Y_55C_67L_, Q9UKT9]", "high"),
    ("FFCPICGAFFTQKGNLLRHIKL [46F_47F_49P_50I_52G_53A_54F_55F_67L_, Q9UKT9]", "middle"),
    ("FTCEVCGADFTQKGNLLRHIKL [46F_47T_49E_50V_52G_53A_54D_55F_67L_, Q9UKT9]", "low"),
    ("FQCNQCGAYFTQKGNLLRHIKL [46F_47Q_49N_50Q_52G_53A_54Y_55F_67L_, Q9UKT9]", "low"),
    ("FLCDICGAEFTQKGNLLRHIKL [46F_47L_49D_50I_52G_53A_54E_55F_67L_, Q9UKT9]", "low"),
    ("FRCPICGAPFTQKGNLLRHIKL [46F_47R_49P_50I_52G_53A_54P_55F_67L_, Q9UKT9]", "high"),
]

In: Dear colleague, I would appreciate it if you could identify the bin for FSCPICGHVFTQKGNLLRHIKL [46F_47S_49P_50I_52G_53H_54V_55F_67L_, Q9UKT9] and reply at your convenience.
Out: low

In: Now consider LNCPICGFYCTQKGNLLRHIKL [46L_47N_49P_50I_52G_53F_54Y_55C_67L_, Q9UKT9] .
Out: middle

In: Now consider LYCPICGFYCTQKGNLLRHIKL [46L_47Y_49P_50I_52G_53F_54Y_55C_67L_, Q9UKT9] .
Out: high

In: Now consider FCCPVCGAYFTQKGNLLRHIKL [46F_47C_49P_50V_52G_53A_54Y_55F_67L_, Q9UKT9] .
Out: middle

In: Now consider FNCPICGRPFTQKGNLLRHIKL [46F_47N_49P_50I_52G_53R_54P_55F_67L_, Q9UKT9] .
Out: middle

In: Now consider LKCEICGFTCTQKGNLLRHIKL [46L_47K_49E_50I_52G_53F_54T_55C_67L_, Q9UKT9] .
Out: low
